Reported growth inhibition is given for each of the following molecules.
- protocol.text: NCI Yeast Anticancer Drug Screen. Data for the rad50EPP+ strain (AID 151);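 further: 0% = growth of vehicle-treated control cultures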
- test.parameters: S. cerevisiae rad50 mutant strain, at 1.2 µM, active compounds read high
About 79,000 compounds went through this panel and 15% of them were active in at least one assay; those are over-represented in the sample as a whole.
Please give a number only; it is taken to be in %.

Ask | Recorded growth inhibition of CN1C(=O)C(CC(=O)O)NC1=S (stereo unspecified) , please.
Reply | -1

====

- protocol.text: NCI Yeast Anticancer Drug Screen. Data for the wt2 strain (AID 169);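 further: 0% = growth of vehicle-treated yeast cultures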
- test.parameters: S. cerevisiae wt2 strain growth inhibition; at 33.0 µM; active compounds read high
About 79,000 compounds went through this panel and 15% of them were active in at least one assay; those are over-represented in the sample as a whole.
Reported growth inhibition is given for each of the following molecules.
Please give a number only; it is taken to be in %.

Example molecules with recorded growth inhibition:
molecule	value.reported
O=C1c2ccccc2-c2ccc(N=Cc3ccccc3)cc21	51
CCN(CC)CCNc1ccc2nc(C)n3c4ccc(O)cc4c(=O)c1c23	1
O=C(Cc1ccccc1)NNc1nc(NNC(=O)c2ccncc2)nc(Nc2ccc([N+](=O)[O-])cc2)n1	57

Ask | Recorded growth inhibition of CC(C)Cc1ncc(CCCN=C(N)N)[nH]c1=O , please.
Reply | 17

Ask | Repeat with CC(C)(CN1CCCCC1)C(=O)CC(SCCS(=O)(=O)O)c1ccccc1 (centres undefined)
Reply | 11

Ask | Repeat with CC1(C)C(O)OC(O)C1(C)C (centres undefined)
Reply | 5

Ask | Repeat with CC1(c2ccccc2)O[C@@H]2C[C@H]3[C@@H]4CCC5=CC(=O)C=C[C@]5(C)[C@@]4(F)[C@@H](O)C[C@]3(C)[C@]2(C(=O)CO)O1 (some centres undefined)
Reply | 60

Ask | Repeat with C=CCNC1=C2C[C@@H](C)C[C@H](OC)[C@H](O)[C@@H](C)/C=C(\C)[C@H](OC(N)=O)[C@@H](OC)/C=C\C=C(/C)C(=O)NC(=CC1=O)C2=O
Reply | 93

Ask | Repeat with Cc1ccc(Nc2n[nH]c(=S)s2)c(C)c1
Reply | 62

Ask | Repeat with Cc1ccc(C)c(C(=N)c2ccccc2Cc2ccccc2)c1
Reply | 93
